- Test system: SNB-75 CNS
- protocol-summary: NCI-60 one-dose screen, 48 h (100 = growth as untreated, 0 = no growth, -100 = all killed)
- experimental-conditions: 10 µM unless noted
The panel holds about 83,000 compounds, 20% with a hit somewhere; the sample as a whole holds those more often.
Just a reminder that ties go to rule not met: only growth strictly below 40% counts as rule met.

compound=O=c1c2cc(F)ccc2sc2c(NCCCNCCO)nc3ccc(Cl)cc3c12 label_value="rule not met"
compound=Nc1nc(Nc2cccc(F)c2)nc2ccccc12 label_value="rule not met"
compound=O=c1oc2ccc(Cl)cc2c(=O)n1-c1ccc(Cl)cc1F label_value="rule met"
compound="COCCN(C(=O)Cc1cccs1)C(C(=O)NCc1ccc(OC)cc1)c1ccc(C(C)C)cc1 (stereo unspecified)" label_value="rule not met"
compound=COc1cccc(/C(C#N)=C/c2nc3c(N4CCOCC4)nc(Cl)nc3n2C)c1 label_value="rule met"
compound="O=C(NCc1ccccc1)C1CN(c2ccc(Cl)cc2)N(c2ccc(Cl)cc2)C1=O (stereo unspecified)" label_value="rule not met"
compound=CC(=O)c1ccc(NC(=O)Nc2ccc(S(=O)(=O)Nc3ccc(Cl)nn3)cc2)cc1 label_value="rule not met"
compound=Cc1ccc2cc3c(N)c4c(C)ccc(C)c4nc3nc2c1 label_value="rule not met"
compound="CCN1C(=O)N(CC)C2C1NC(=S)N2/N=C/C=C/c1ccccc1OC (stereo unspecified)" label_value="rule not met"
compound=Nc1ncnc(N)c1NC(=O)c1ccc(OCc2ccccc2)cc1 label_value="rule not met"
compound=COc1cccc(/C=C/C(=O)c2c(C)nc3ccccc3c2/C=C/c2ccccc2)c1OC label_value="rule met"
